Biological target: UniProt P21554
Sequence (P21554 whole entry): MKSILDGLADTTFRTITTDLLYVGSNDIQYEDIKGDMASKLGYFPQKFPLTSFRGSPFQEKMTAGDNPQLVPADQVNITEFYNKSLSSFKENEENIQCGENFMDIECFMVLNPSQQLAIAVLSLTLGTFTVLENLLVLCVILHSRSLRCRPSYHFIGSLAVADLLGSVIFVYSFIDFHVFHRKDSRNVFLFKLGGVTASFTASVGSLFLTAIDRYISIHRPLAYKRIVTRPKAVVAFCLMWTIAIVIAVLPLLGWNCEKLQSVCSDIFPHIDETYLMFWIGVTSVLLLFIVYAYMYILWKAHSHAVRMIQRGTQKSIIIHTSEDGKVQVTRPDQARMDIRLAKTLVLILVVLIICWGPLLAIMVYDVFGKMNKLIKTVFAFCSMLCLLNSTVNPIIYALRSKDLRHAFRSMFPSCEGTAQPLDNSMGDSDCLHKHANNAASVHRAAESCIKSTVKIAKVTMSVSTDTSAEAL
pIC50: −log10 of the molar value.
METRIC: pIC50

ENTRY SMILES | RESULT VALUE
CCCCc1cc(O)c2c(c1)OC(C)(C)[C@@H]1CCC(C)=C[C@@H]21 | 7.55

----------
Target: human CB2 receptor (Homo sapiens)
Construct: Eurofins Discovery (contract assay)
Sequence (P34972 whole entry): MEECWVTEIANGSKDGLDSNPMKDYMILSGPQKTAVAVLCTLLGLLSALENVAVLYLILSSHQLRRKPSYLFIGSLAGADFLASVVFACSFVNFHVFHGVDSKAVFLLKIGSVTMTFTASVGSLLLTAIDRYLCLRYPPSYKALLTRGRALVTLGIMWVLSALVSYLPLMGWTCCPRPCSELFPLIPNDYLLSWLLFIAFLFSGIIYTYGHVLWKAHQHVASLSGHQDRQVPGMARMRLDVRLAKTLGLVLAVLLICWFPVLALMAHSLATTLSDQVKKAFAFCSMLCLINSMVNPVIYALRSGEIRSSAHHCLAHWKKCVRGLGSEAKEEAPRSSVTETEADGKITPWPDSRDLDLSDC
Assay: Radioligand binding assay at human CB2 receptor ([^3H]WIN 55212-2 displacement, Eurofins Discovery)
Procedure: 2.2.4 Binding affinity at human CB1 and CB2 receptors. The binding affinity of (−)-trans-Δ^9-THCB against purified human CB1 and CB2 receptors was determined in a radioligand binding assay. The capability of the ligand to displace radiolabeled [^3H] Binding at CB1 and CB2 Receptors. The binding affinity of (−)-trans-Δ^9-THCB against human CB1 and CB2 receptors was determined in a radioligand binding assay performed by Eurofins Discovery. […]

MOLECULE | TESTED TARGET | Ki, nM
CCCCCCCc1cc(O)c2c(c1)OC(C)(C)[C@@H]1CCC(C)=C[C@@H]21 [Δ^9-THCP] | human CB2 receptor (Homo sapiens) | 6.2
